Listed here: items and their measured IC50.
target: MAT2A homodimer (Homo sapiens, UniProt P31153); construct: inferred from the Ni sepharose purification and imidazole elution; made in house; host or cells: SF9 insect cells, recombinant baculovirus (Bac to Bac, pFASTBAC1); experiment: MAT2A biochemical assay (liberated phosphate, PiColorLock Gold); conditions: Table 5a; MAT2A biochemical assay; read-out: Enzyme Inhibition
Sequence (P31153 whole entry): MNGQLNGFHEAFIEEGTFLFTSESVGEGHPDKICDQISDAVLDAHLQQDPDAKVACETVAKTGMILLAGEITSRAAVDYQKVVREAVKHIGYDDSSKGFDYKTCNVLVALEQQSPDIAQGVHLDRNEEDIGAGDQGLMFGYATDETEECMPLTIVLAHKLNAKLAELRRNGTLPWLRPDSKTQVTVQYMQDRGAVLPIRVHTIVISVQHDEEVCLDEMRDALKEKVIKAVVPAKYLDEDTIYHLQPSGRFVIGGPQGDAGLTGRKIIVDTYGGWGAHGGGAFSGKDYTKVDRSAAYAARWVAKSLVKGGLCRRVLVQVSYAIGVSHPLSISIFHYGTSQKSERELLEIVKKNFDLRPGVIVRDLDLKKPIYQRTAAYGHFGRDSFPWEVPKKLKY
assayReadout: IC50

>>> valuereported("Cn1cc2cc(N3Cc4ccc(NCC(F)(F)F)nc4N(c4ccc(-c5nc[nH]n5)cc4)C3=O)ccc2n1")
"< 100 nM"
>>> valuereported("Cn1cc2cc(N3Cc4ccc(OCC(F)F)nc4N(c4ccc5nccn5c4)C3=O)ccc2n1")
"< 100 nM"
>>> valuereported("[2H]C([2H])([2H])Oc1ccc(N2C(=O)N(c3ccc4ncsc4c3)Cc3ccc(OCC(F)F)nc32)cc1")
"< 100 nM"
>>> valuereported("Cn1cc2cc(N3Cc4ncc(NCC(F)(F)F)nc4N(c4ccc(OC(F)F)cc4)C3=O)ccc2n1")
"< 100 nM"
>>> valuereported("COc1ccc(N2Cc3cnc(NCC(F)(F)F)nc3N(c3ccc4sccc4c3)C2=O)cc1")
"100 to 1000 nM"
>>> valuereported("CCNc1ccc2c(n1)N(c1ccc(OC(F)F)cc1)C(=O)N(c1ccc3ncn(C)c3c1)C2")
"< 100 nM"

Values from patent US20220098203A1
